Numbers sourced from paper PMC7076710.

# target: GATA4–NKX2-5 transcriptional synergy (Mus musculus, UniProt P42582+Q08369)
# Construct: expressed in transfected cells; host or cells: COS-1
# assay procedure: GATA4–NKX2-5 transcriptional synergy luciferase reporter assay (3xNKE reporter, COS-1 cells)
# Format: cell-based
# condition label: COS-1; compound 3 µM; luciferase reporter activity; spread in separate STDEV column
experimental endpoint: activity at 3 µM (%)

Worked examples, 3 molecules total:
CCN(CC)c1ccc(NC(=O)c2c(-c3ccccc3)noc2C)cc1Cl [Compound 4c] ... 92.6
N#Cc1ccc(NC(=O)c2cc(-c3ccco3)on2)cc1 [SI113] ... 101
Cc1onc(-c2ccccc2)c1C(=O)Nc1nc(C(C)(C)C)cs1 [Compound 4k] ... 117

P: CC(=O)c1ccc(NC(=O)c2cc(-c3ccco3)on2)cc1 [Compound 70]
Q: COc1ccc(-c2cc(NCc3ccc(N(C)C)cc3)n[nH]2)cc1 [SI92]
Return label of the item with the larger activity at 3 µM. Candidates: P , Q . Refer to your chosen entry by its label in the reply.
P

---

# target: GATA4 transcriptional activity (Mus musculus, UniProt Q08369)
# Construct: expressed in transfected cells; host or cells: COS-1
# Sequence (Q08369 whole entry): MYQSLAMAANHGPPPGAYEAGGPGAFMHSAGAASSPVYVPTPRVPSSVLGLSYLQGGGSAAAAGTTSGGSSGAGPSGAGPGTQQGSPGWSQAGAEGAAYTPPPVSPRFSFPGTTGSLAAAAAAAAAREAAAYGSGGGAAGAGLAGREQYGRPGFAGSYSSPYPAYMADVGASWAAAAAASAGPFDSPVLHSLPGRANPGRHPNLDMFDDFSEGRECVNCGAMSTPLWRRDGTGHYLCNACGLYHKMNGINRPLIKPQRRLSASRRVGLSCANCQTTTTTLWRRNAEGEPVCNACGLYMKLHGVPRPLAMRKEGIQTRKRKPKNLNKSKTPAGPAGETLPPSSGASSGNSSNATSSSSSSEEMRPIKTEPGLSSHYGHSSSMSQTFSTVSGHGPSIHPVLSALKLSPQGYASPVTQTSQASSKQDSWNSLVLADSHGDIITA
# assay procedure: GATA4 luciferase reporter assay (tandem GATA-site reporter, COS-1 cells)
# Assay type: cell-based
# condition label: COS-1; compound 10 µM; luciferase reporter activity; spread in separate STDEV column
experimental endpoint: activity at 10 µM (%)

Cc1onc(-c2ccccc2)c1C(=O)Nc1ccc(C(=O)OCCCC#N)cc1 [Compound 10b] ... 114

I: CN(C)c1ccc(CNc2cc(-c3ccccc3)nn2-c2ccccc2)cc1
II: CCN(CC)c1ccc(NC(=O)c2cc(C)oc2-c2cc(C)on2)cc1 [Compound 47h]
Returns the identifier with the smallest measured activity at 10 µM among I and II . // output: label of the selected item
I
(I: 85%, II: 143%)

---

# target: GATA4–NKX2-5 transcriptional synergy (Mus musculus, UniProt P42582+Q08369)
# Construct: expressed in transfected cells; host or cells: COS-1
# assay procedure: GATA4–NKX2-5 transcriptional synergy luciferase reporter assay (3xNKE reporter, COS-1 cells)
# Type: cell-based
# condition label: COS-1; GATA4-NKX2-5 transcriptional synergy luciferase reporter assay, compound at 10 µM
experimental endpoint: activity at 10 µM (%)

O=C(Nc1cccc(N2CCCC2=O)c1)c1cc(-c2ccccc2)[nH]n1 ... 106

a: CC(C)c1ccc(NC(=O)c2n[nH]c3c2COc2ccccc2-3)cc1
b: CCN(CC)c1ccc(NC(=O)c2c(-c3ccccc3)noc2C)c(C)c1
Identify the entry with the larger activity at 10 µM. Options: a and b Write down the label of the entry you select.
a
(a: 103%, b: 61.6%)

---

# Lookup of reported MTT.1µM keyed by entry
# System: COS-1 cells
# assay procedure: MTT assay (cell viability)
# Format: cell-based
# condition label: 1 µM; cell viability
Just the number.

Take a look at these entries with their results.
CCN(CC)c1ccc(NC(=O)c2c(-c3ccsc3)noc2C)cc1 [Compound 39m] ... 102.49
CC(=O)COC(=O)c1ccc(OCc2c(-c3ccccc3)noc2C)cc1 [Compound 35d] ... 81.99
CCC(OC)c1ccc(OCc2c(-c3ccccc3)noc2C)cc1 (racemic) [Compound 34e] ... 102.33
COc1ccc(-c2cc(N)nn2C(=O)c2c(-c3ccccc3)noc2C)cc1 [SI137] ... 100.57
CCN(CC)c1ccc(NC(=O)c2cc(C)oc2-c2ccccc2)cc1 [Compound 54] ... 97.73

Request: MTT.1µM, test system COS-1 cells, entry Cc1onc(-c2ccccc2)c1COc1ccc(C(=O)OCCC#N)cc1 [Compound 35a]
83.35

---

# target: GATA4–NKX2-5 transcriptional synergy (Mus musculus, UniProt P42582+Q08369)
# Construct: expressed in transfected cells; host or cells: COS-1
# assay procedure: GATA4–NKX2-5 transcriptional synergy luciferase reporter assay (3xNKE reporter, COS-1 cells)
# Assay type: cell-based
# condition label: COS-1; compound 10 µM; luciferase reporter activity; spread in separate STDEV column
experimental endpoint: activity at 10 µM (%)

N#Cc1ccc(NC(=O)c2cc(-c3ccco3)on2)cc1 ... 99.2
CCN(CC)c1ccc(NC(=O)c2cc(C)oc2-c2cc(C)on2)cc1 [Compound 47h] ... 104
Cc1cc(-c2onc(C)c2C(=O)N(C)c2ccc3oc(-c4ccccc4)cc(=O)c3c2)no1 ... 121
CCN(CC)c1ccc(NC(=O)c2c(C)noc2-c2noc(C)c2C)cc1 ... 97.9
Cc1onc(-c2ccccc2)c1C(=O)Nc1nc(C(C)(C)C)cs1 ... 115

---

# Test system: COS-1 cells
# assay procedure: LDH assay (necrosis)
# Type: cell-based
# condition label: 10 µM
LDH.10µM reference
Answer using only a numeral; do not append any unit.

// below: answered compounds
CCN(CC)c1ccc(NC(=O)c2cnsc2)cc1 [Compound 47s] ... 1.08
CCC(=O)N(Cc1ccc(N(CC)CC)cc1)c1c(-c2ccccc2)noc1C ... -1.03
Cc1onc(-c2ccccc2)c1COc1ccc(C(=O)OCCC#N)cc1 [Compound 35a] ... 1.72

Kindly state the measured LDH.10µM obtained for Cc1onc(-c2ccccc2)c1C(=O)Nc1ccc2oc(-c3ccccc3)cc(=O)c2c1 with COS-1 cells.
-0.94

Requested read-out LDH.10µM, target or system COS-1 cells, entry CCN(CC)c1ccc(NC(=O)c2c(C)noc2-c2cc(C)on2)cc1
-1.59

Any idea what LDH.10µM came out for CCN(CC)c1ccc(NC(=O)c2ccnn2-c2ccccc2)cc1 on COS-1 cells?
0.07

Query for COS-1 cells: what LDH.10µM does the record show for CCN(CC)c1ccc(NC(=O)c2c(C)noc2-c2ccccc2)cc1 ?
-1.85

Recall the recorded LDH.10µM for CCN(CC)c1ccc(CN(C(=O)C(F)(F)F)c2c(-c3ccccc3)noc2C)cc1 [Compound 30c] with COS-1 cells and state it.
-0.99

Missing value: LDH.10µM, COS-1 cells, entry CCN(CC)c1ccc(NC(=O)c2snnc2-c2ccccc2)cc1 [Compound 47n] . Fill in?
0.75

Test system COS-1 cells; read-out LDH.10µM; what value for C=CCN(Cc1ccc(N(CC)CC)cc1)c1c(-c2ccccc2)noc1C [Compound 30b] ?
1.75

Fill in the recorded LDH.10µM for this compound, with COS-1 cells as test system: CCN(CC)c1ccc(NC(=O)c2cnc(SC)n2-c2ccc(F)cc2)cc1 [Compound 47z]
-0.3

Can you look up LDH.10µM on COS-1 cells for COc1ccc(-c2cc(NC(=O)c3ccc(C(C)(C)C)cc3)n[nH]2)cc1 ?
0.22

---

# target: NKX2-5 transcriptional activity (Mus musculus)
# Construct: expressed in transfected cells; host or cells: COS-1
# Sequence (P42582 whole entry): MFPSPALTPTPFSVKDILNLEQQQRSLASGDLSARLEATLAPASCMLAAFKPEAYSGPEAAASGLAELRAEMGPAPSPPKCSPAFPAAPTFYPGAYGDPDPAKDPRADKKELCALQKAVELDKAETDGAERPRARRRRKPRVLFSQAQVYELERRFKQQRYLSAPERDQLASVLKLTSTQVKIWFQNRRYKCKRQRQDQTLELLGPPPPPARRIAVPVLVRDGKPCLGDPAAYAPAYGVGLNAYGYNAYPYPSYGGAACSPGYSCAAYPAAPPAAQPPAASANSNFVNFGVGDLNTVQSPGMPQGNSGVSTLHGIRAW
# assay procedure: NKX2-5 luciferase reporter assay (3xNKE reporter, COS-1 cells)
# Type: cell-based
# condition label: COS-1; 10 µM; luciferase reporter activity relative to control; read-out: NKX.10µM
experimental endpoint: activity at 10 µM (%)

Solved cases (4 shown):
CC[N+](O)(CC)c1ccc(NC(=O)c2c(-c3ccccc3)noc2C)cc1 [SI4] ... 99.9
CCN(CC)c1ccc(/C=N/c2c(-c3ccccc3)noc2C)c(O)c1 [SI44] ... 53.9
CC(=O)N(Cc1ccc(N(C)C)cc1)c1c(-c2ccccc2)noc1C [Compound 64] ... 44.1
CCN(CC)c1ccc(NCc2c[nH]nc2-c2cc(F)cc(F)c2)cc1 [SI79] ... 71.4

a: CCN(CC)c1ccc(NC(=O)c2ccnn2-c2ccccc2)cc1 [SI88]
b: CCN(CC)c1ccc(NC(=O)c2c(-c3ccccc3)nnn2CCc2ccccc2)cc1 [Compound 71]
// pick larger activity at 10 µM from pair: a vs b Field: selected label. Fill in the label of the entry you choose.
a

---

# target: GATA4–NKX2-5 transcriptional synergy (Mus musculus, UniProt P42582+Q08369)
# Construct: expressed in transfected cells; host or cells: COS-1
# assay procedure: GATA4–NKX2-5 transcriptional synergy luciferase reporter assay (3xNKE reporter, COS-1 cells)
# Assay type: cell-based
# condition label: 3 µM compound; GATA4–NKX2-5 transcriptional synergy reporter, COS-1 cells
experimental endpoint: activity at 3 µM (%)

CCN(CC)c1ccc(NCc2c(-c3ccccc3)noc2C)cc1 ... 85.3
CCN(CC)c1ccc(NC(=O)c2c(-c3ccc(-c4ccc(F)cc4)cc3)noc2C)cc1 [Compound 39j] ... 115
Cc1cc(-c2onc(C)c2C(=O)Nc2ccc3oc(-c4ccccc4)cc(=O)c3c2)no1 ... 107
Cc1onc(-c2ccccc2)c1C(=O)Nc1ccc(C(=O)OCC#N)cc1 [Compound 10a] ... 95
C#Cc1ccc(NC(=O)c2c(-c3ccccc3)noc2C)cc1 ... 93.2
CCc1noc(C)c1C(=O)Nc1ccc2oc(-c3ccccc3)cc(=O)c2c1 ... 91.4
COC(=O)c1ccc(N(C)C(=O)c2c(-c3ccccc3)noc2C)cc1 ... 100
CCN(CC)c1ccc(NCc2c[nH]nc2-c2ccc(F)cc2)cc1 ... 98.1
CCN(CC)c1ccc(/N=C/c2c(-c3ccccc3)noc2C)cc1 ... 102
O=C(Nc1ccc2oc(-c3ccccc3)cc(=O)c2c1)c1c[nH]nc1-c1ccccc1 ... 102
CCN(CC)c1ccc(NC(=O)c2c(C(F)(F)F)nn(C)c2Oc2ccccc2)cc1 [Compound 47q] ... 94.5
CCN(CC)c1ccc(NC(=O)c2c[nH]nc2-n2cnnn2)cc1 [Compound 47g] ... 102
CCN(CC)c1ccc(-n2c(=O)c3c(C)onc3c3ccccc32)cc1 ... 84.1
